- assay text: self-splicing fitness, log relative to wild type (ln ratio); higher = more splicing; Tetrahymena group I intron in knt gene, E. coli kanamycin selection, DiMSum; sequences stand for … in CUCUCU…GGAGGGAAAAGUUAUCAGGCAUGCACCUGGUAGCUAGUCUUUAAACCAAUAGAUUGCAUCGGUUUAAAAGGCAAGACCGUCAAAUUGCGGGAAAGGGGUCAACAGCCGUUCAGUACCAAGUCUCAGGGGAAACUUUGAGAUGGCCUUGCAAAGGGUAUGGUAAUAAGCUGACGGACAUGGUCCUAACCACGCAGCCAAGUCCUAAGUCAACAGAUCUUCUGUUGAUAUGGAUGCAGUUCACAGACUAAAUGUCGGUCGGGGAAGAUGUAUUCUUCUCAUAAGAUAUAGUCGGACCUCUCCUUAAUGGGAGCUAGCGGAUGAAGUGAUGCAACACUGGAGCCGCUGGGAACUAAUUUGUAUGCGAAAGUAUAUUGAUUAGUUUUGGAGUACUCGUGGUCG;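 further: selection with 25 µg/mL kanamycin versus none on LB agar overnight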
- cond: 30 °C
measurement label: self-splicing fitness (ln)

// solved cases for self-splicing fitness (ln) follow
CCAGAGCAAUAUUACGUGUC = -2.88
AAAUAGCAAUAUUACGCGAC = -2.2
UUCAAGCAAUAUUACGUCGG = -0.722
CCCUAGCAAUAUUACGAUUC = -1.79
CUCCAGCAAUAUUACGGACA = -0.816
AUCCAGCAAUAUUACGACAC = -0.468

Consider the following items and state reported self-splicing fitness (ln) for each.
1. GUGUAGCAAUAUUACGGCCA
2. UGUAAGCAAUAUUACGAGCA
3. CGCAAGCAAUAUUACGCCGU
4. CGAAAGCAAUAUUACGGCCU

Outgoing:
0.628
-0.193
-2.67
-1.32

Consider the following items and state reported self-splicing fitness (ln) for each.
1. CGGGAGCAAUAUUACGUUGA
2. CCAAAGCAAUAUUACGCUCU

Outgoing:
1. -3.82
2. -3.95

Consider the following items and state reported self-splicing fitness (ln) for each.
1. GCGCAGCAAUAUUACGGACU
2. UGAGAGCAAUAUUACGUAGA

Outgoing:
[-0.744, -2.94]

Consider the following items and state reported self-splicing fitness (ln) for each.
1. UAUUAGCAAUAUUACGAAUG
2. UCGAAGCAAUAUUACGCGAU
3. GCGCAGCAAUAUUACGGGCG
4. UUAUAGCAAUAUUACGGACG
5. GCUCAGCAAUAUUACGACUG
6. GUACAGCAAUAUUACGUAUA
7. CGUAAGCAAUAUUACGACUC
8. GGCGAGCAAUAUUACGUGCG

Outgoing:
1: -0.433; 2: -3.31; 3: -3.71; 4: -1.25; 5: -2.66; 6: -1.77; 7: -3.64; 8: -1.65

----------
- assay text: self-splicing fitness, log relative to wild type (ln ratio); higher = more splicing; Tetrahymena group I intron in knt gene, E. coli kanamycin selection, DiMSum; sequences stand for … in CUCUCU…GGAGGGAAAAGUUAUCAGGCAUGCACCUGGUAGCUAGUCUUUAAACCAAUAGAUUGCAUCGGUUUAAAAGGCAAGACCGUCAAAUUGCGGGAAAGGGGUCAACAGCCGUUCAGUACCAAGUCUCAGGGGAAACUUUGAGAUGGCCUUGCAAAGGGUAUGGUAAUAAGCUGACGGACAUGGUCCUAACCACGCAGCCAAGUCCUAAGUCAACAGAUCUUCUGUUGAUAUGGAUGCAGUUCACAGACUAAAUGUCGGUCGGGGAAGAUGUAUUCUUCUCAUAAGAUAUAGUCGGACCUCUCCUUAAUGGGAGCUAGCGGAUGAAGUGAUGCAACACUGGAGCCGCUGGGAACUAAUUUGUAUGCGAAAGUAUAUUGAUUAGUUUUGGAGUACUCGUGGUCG
- cond: 30 °C
Think of -2 as a floor: if self-splicing fitness (ln) stands on it or above, it is True; beneath it, False.

GGGGAGCAAUAUUACGGGAU = False
GGCAAGCAAUAUUACGCCCG = False
CACUAGCAAUAUUACGGAUA = False
AUCGAGCAAUAUUACGAUGA = False

Incoming: Does "AGCUAGCAAUAUUACGGCUC" have a reported self-splicing fitness (ln) of at least -2?
Outgoing: False

Incoming: Also, "GUGCAGCAAUAUUACGGGUU" please.
Outgoing: False

Incoming: Also, "CGUCAGCAAUAUUACGAAUU" please.
Outgoing: False

Incoming: Also, "UUUCAGCAAUAUUACGUGGC" please.
Outgoing: False

Incoming: Also, "UCGAAGCAAUAUUACGUAAA" please.
Outgoing: True

Incoming: Also, "AACAAGCAAUAUUACGUGUG" please.
Outgoing: True

Incoming: Also, "UUGCAGCAAUAUUACGUCCU" please.
Outgoing: True

Incoming: Also, "AGGCAGCAAUAUUACGCCUC" please.
Outgoing: False

Incoming: Also, "UGGUAGCAAUAUUACGCUAG" please.
Outgoing: False

Incoming: Also, "AUACAGCAAUAUUACGGGGA" please.
Outgoing: False

Incoming: Also, "CCUGAGCAAUAUUACGUACC" please.
Outgoing: True

Incoming: Also, "GGUCAGCAAUAUUACGACUC" please.
Outgoing: False

----------
- assay text: self-splicing fitness, log relative to wild type (ln ratio); higher = more splicing; Tetrahymena group I intron in knt gene, E. coli kanamycin selection, DiMSum; sequences stand for … in CUCUCU…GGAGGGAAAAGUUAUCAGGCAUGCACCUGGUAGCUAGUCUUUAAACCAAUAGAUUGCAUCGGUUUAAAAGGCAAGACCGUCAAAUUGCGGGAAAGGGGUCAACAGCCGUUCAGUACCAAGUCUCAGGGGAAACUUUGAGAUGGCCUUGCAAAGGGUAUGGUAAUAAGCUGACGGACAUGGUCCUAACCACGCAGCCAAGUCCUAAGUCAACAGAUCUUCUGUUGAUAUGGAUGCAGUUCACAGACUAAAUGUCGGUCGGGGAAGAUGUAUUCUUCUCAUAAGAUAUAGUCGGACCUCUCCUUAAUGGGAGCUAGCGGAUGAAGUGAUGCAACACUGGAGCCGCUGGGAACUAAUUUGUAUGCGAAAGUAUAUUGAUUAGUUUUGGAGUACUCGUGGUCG
- cond: 30 °C
For each of the sequences below, state its self-splicing fitness (ln).

AAAUAGCAAUAUUACGAGGA = -2.72
UUGAAGCAAUAUUACGGCAA = 0.615
AAUUAGCAAUAUUACGCUCC = -1.09
UCUGAGCAAUAUUACGCGGA = -3.6
ACCCAGCAAUAUUACGUGCU = -4.5

Consider the following items and state reported self-splicing fitness (ln) for each.
1. UCUCAGCAAUAUUACGGCGA
2. CUCAAGCAAUAUUACGCCGU

Outgoing:
1. -1.13
2. -3.42

Incoming: Dear colleague, I am looking for the recorded self-splicing fitness (ln) of the following sequence: "CAUGAGCAAUAUUACGUACG"
Outgoing: -0.969

----------
- assay text: self-splicing fitness, log relative to wild type (ln ratio); higher = more splicing; Tetrahymena group I intron in knt gene, E. coli kanamycin selection, DiMSum; sequences stand for … in CUCUCU…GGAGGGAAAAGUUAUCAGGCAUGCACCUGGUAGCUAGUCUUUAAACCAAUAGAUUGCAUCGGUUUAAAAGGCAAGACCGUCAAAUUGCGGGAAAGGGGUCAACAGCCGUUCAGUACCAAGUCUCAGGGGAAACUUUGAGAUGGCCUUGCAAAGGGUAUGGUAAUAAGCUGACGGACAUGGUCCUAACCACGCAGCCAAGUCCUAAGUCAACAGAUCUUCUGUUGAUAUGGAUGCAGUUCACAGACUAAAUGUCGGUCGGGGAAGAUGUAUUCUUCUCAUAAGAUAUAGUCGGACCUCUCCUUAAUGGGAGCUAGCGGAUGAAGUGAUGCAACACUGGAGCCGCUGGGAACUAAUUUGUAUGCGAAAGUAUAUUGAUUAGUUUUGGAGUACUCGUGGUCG
- cond: 30 °C
measurement label: self-splicing fitness (ln)
Give bare numbers.

UUGCAGCAAUAUUACGUCGU = -1.8

Consider the following items and state reported self-splicing fitness (ln) for each.
1. CCACAGCAAUAUUACGUGCU
2. UAAAAGCAAUAUUACGGUUC
3. UCCAAGCAAUAUUACGUUUC
4. GCUUAGCAAUAUUACGCGCG
5. GGUCAGCAAUAUUACGCAUU

Outgoing:
1: -3.61; 2: -3.1; 3: -3.37; 4: -0.0422; 5: 0.00502

Consider the following items and state reported self-splicing fitness (ln) for each.
1. CCAAAGCAAUAUUACGGCGG
2. GGACAGCAAUAUUACGGAAC
3. CAAUAGCAAUAUUACGGCGA
4. GGCAAGCAAUAUUACGCUUC
5. CAGCAGCAAUAUUACGUCCG
6. GAUCAGCAAUAUUACGUGAG
7. AAGAAGCAAUAUUACGGUCC
8. UAGAAGCAAUAUUACGAUUA

Outgoing:
1. -3.8
2. -0.76
3. -3.93
4. -1.44
5. 0.0818
6. -0.0667
7. -1.1
8. -0.441

Consider the following items and state reported self-splicing fitness (ln) for each.
1. CAUCAGCAAUAUUACGGCAG
2. UCGCAGCAAUAUUACGCACC
3. CGGAAGCAAUAUUACGGGGC
4. GUUCAGCAAUAUUACGCAAU
5. UCGUAGCAAUAUUACGGCCA

Outgoing:
1: -0.68; 2: -1.68; 3: -2.49; 4: -1.08; 5: -0.72

Consider the following items and state reported self-splicing fitness (ln) for each.
1. GUAGAGCAAUAUUACGCAGG
2. GCUUAGCAAUAUUACGGGUU

Outgoing:
-1.51
-1.95
